target.desc: T1, human CD39 on cells (human, UniProt P49961 1-510)
T1 construct: One molecule for all cells that carry human CD39; the cell is named under assay; also called hCD39; cellular CD39
T1 sequence: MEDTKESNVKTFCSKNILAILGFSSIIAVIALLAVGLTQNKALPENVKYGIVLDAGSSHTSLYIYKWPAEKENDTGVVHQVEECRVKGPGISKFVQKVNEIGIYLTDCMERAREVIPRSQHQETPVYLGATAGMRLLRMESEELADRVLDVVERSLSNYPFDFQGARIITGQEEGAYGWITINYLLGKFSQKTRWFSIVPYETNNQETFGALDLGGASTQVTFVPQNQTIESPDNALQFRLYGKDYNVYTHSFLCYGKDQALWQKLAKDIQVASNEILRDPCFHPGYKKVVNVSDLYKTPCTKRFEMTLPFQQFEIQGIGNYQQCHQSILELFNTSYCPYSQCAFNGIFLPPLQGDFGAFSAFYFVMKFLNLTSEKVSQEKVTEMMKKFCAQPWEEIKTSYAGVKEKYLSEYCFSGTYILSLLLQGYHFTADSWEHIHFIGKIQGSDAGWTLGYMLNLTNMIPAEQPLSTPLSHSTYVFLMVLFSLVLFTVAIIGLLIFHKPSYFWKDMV
test.method.notes: flow cytometry, 100 nM IgG, hCD39-CHO cells; MFI ratio to parental CHO
readout: Cell Binding (FOB)
Answer with the figure and its unit, nothing else.

Worked examples, 2 binders total:
INSERT INTO assay_data (binder, readout, value_observed) VALUES
  ('27589 (antibody, V domains shown) VH: QVQLVQSGAEVKKPGSSVKVSCKASGGTFSSYAISWVRQAPGQGLEWMGGIIPIFGTANYAQKFQGRVTITADESTSTAYMELSSLRSEDTAVYYCARDSGYHRHYSDYWGQGTLVTVSS VL: DIQMTQSPSTLSASVGDRVTITCRASQSISSWLAWYQQKPGKAPKLLIYKASSLESGVPSRFSGSGSGTEFTLTISSLQPDDFATYYCQQYGLFPITFGGGTKVEIKR', 'Cell Binding (FOB)', '311 FOB'),
  ('29871 (antibody, V domains shown) VH: QVQLVQSGAEVKKPGASVKVSCKASGYTFQSYYMHWVRQAPGQGLEWMGKINPSGGSTWYAQKFQGRVTMTRDTSTSTVYMELSSLRSEDTAVYYCARGKREGGTEYLRHWGQGTLVTVSS VL: EIVLTQSPGTLSLSPGERATLSCRASQSVSSSYLAWYQQKPGQAPRLLIYGASSRATGIPDRFSGSGSGTDFTLTISRLEPEDFAVYYCQQYHSYITFGGGTKVEIK', 'Cell Binding (FOB)', '451 FOB');

Asked: Supply Cell Binding (FOB) value. Item: 27577 (antibody, V domains shown) VH: QVQLVQSGAEVKKPGSSVKVSCKASGGAFSSYAIGWVRQAPGQGLEWMGGIIPTFGTANYAQKFQGRVTITADESTSTAYMELSSLRSEDTAVYYCARDGGGYQHHYFDLWGRGTLVTVSS VL: EIVMTQSPATLSVSPGERATLSCRASQSVGSNLAWYQQKPGQAPRLLIYGASTRATGIPARFSGSGSGTEFTLTISSLQSEDFAVYYCQQLTKWPLTFGGGTKVEIKR
Given back: 390 FOB
